Data origin: patent US4263437A

system: carrageenan-induced edema in the hind paws; assay: Carrageenan-induced hind paw edema in rats (oral administration); format: in vivo, Male Wistar rats; conditions: Rattus norvegicus, 1 hour before 0.1 ml of 1% carrageenan, 3 hours
Would you kindly list inhibition in vivo at 5 mg/kg for each of these compounds?
// unit must come after the numeric part

Please state recorded inhibition in vivo at 5 mg/kg (tested on carrageenan-induced edema in the hind paws) of "CCOC(=O)Cc1ccc2c(c1)CCc1ccccc1O2" 63.4%

Also, "O=C(O)Cc1ccc2c(c1)C(=O)Cc1ccccc1O2" please. 44.1%

Another compound to check: "CCOC(=O)Cc1ccc2c(c1)CCc1cccnc1O2" 41.6%

Then "CCOC(=O)Cc1ccc2c(c1)C(=O)Cc1ccccc1O2" ? 47.9%

Now try "CCOC(=O)Cc1ccc2c(c1)C(=O)Cc1ccccc1S2" . 50.6%

Follow-up item: "CCOC(=O)Cc1ccc2c(c1)CCc1ccccc1S2" 46%

Ok, now "NC(=O)Cc1ccc2c(c1)C(=O)Cc1ccccc1S2" 42.1%

====

system: carrageenan-induced edema in the hind paws; test: Carrageenan-induced hind paw edema in rats (oral administration); assay type: in vivo, Male Wistar rats; conditions: Rattus norvegicus, 1 hour before 0.1 ml of 1% carrageenan, 3 hours
reported-metric: inhibition in vivo at 5 mg/kg (%)
Give the quantity in %, number only.

GET /values?readout=inhibition in vivo at 5 mg/kg&system=carrageenan-induced edema in the hind paws&item= "O=C(O)Cc1ccc2c(c1)CCc1cccnc1S2" 59.7

Entry to check: "O=C(O)Cc1ccc2c(c1)C(=O)Cc1ccccc1S2" 58

"O=C(O)Cc1ccc2c(c1)CCc1ccccc1O2" ? 61.4

Again, but for "O=C(O)Cc1ccc2c(c1)CCc1cccnc1O2" 50.6

Okay, and "NC(=O)Cc1ccc2c(c1)CCc1cccnc1S2" ? 43.9

Same for "COC(=O)Cc1ccc2c(c1)C(=O)Cc1cccnc1S2" 38.4

"O=C(O)Cc1ccc2c(c1)CCc1ccccc1S2" , same question. 45.3

And then CCCCC1C(=O)N(c2ccccc2)N(c2ccccc2)C1=O [Phenylbutazone, reference compound] , what is it? 20.9

And what about the compound "CCOC(=O)Cc1ccc2c(c1)CCc1cccnc1S2" ? 64.6

Also O=C(O)c1ccccc1Nc1cccc(C(F)(F)F)c1 [Flufenamic acid, reference compound] , if possible. 29.3
